Tested on: Escherichia coli TOP10
Assay: shrunken log2 fold change of peptide-encoding DNA abundance (4.5 h post-induction vs induction); higher = less antimicrobial activity (less host growth inhibition)
Settings: time post-induction: 4.5 h; library: site-saturation at positions 5, 18, 19, 20
Quick list: shrunken log2 fold change per entry.

>  <Seq>
RRIRGRPPRLPRPRPRPQKQPRP

>  <Observed Measurement>
0.154

$$$$

Look up and report shrunken log2 fold change, with Escherichia coli TOP10 as system, for "RRIRTRPPRLPRPRPRPRWMPRP"
0.0454

Look up and report shrunken log2 fold change, with Escherichia coli TOP10 as system, for "RRIRWRPPRLPRPRPRPQKGPRP"
-0.214

---

Tested on: Escherichia coli TOP10
Experiment: shrunken log2 fold change of peptide-encoding DNA abundance (4.5 h post-induction vs induction); higher = less antimicrobial activity (less host growth inhibition)
Conditions: time post-induction: 4.5 h; library: site-saturation at positions 5, 18, 19, 20
Parameter: shrunken log2 fold change
Please state the value as a number alone, without comment.

Consider the following illustrative entries.
>  <Seq>
RRIRYRPPRLPRPRPRPNRTPRP

>  <shrunken log2 fold change>
-0.211

$$$$
>  <Seq>
RRIRYRPPRLPRPRPRPMGPPRP

>  <shrunken log2 fold change>
-0.121

$$$$
>  <Seq>
RRIRLRPPRLPRPRPRPHGQPRP

>  <shrunken log2 fold change>
0.0101

$$$$
>  <Seq>
RRIRKRPPRLPRPRPRPERIPRP

>  <shrunken log2 fold change>
0.00934

$$$$
>  <Seq>
RRIRPRPPRLPRPRPRPETQPRP

>  <shrunken log2 fold change>
0.15

$$$$
>  <Seq>
RRIRFRPPRLPRPRPRPSCYPRP

>  <shrunken log2 fold change>
-0.839

$$$$

Could you please provide reported shrunken log2 fold change for "RRIRQRPPRLPRPRPRPSISPRP" ? Thanks!
-0.22

Could you please provide reported shrunken log2 fold change for "RRIRMRPPRLPRPRPRPTDLPRP" ? Thanks!
0.225

Could you please provide reported shrunken log2 fold change for "RRIRCRPPRLPRPRPRPNFCPRP" ? Thanks!
-0.157

Could you please provide reported shrunken log2 fold change for "RRIRDRPPRLPRPRPRPRHQPRP" ? Thanks!
0.0533

Could you please provide reported shrunken log2 fold change for "RRIRHRPPRLPRPRPRPELLPRP" ? Thanks!
0.06

Could you please provide reported shrunken log2 fold change for "RRIRGRPPRLPRPRPRPGQFPRP" ? Thanks!
-0.00612

Could you please provide reported shrunken log2 fold change for "RRIRCRPPRLPRPRPRPGHNPRP" ? Thanks!
-0.385

Could you please provide reported shrunken log2 fold change for "RRIRFRPPRLPRPRPRPIDHPRP" ? Thanks!
-0.0746

Could you please provide reported shrunken log2 fold change for "RRIRKRPPRLPRPRPRPQDNPRP" ? Thanks!
-0.0637

---

Test system: Escherichia coli TOP10;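 also: peptides expressed intracellularly from a pBAD plasmid library in pooled LB shake-flask culture, induced with 0.3% L-arabinose, DNA abundance read by NGS, three biological replicates, DESeq2 with apeglm shrinkage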
Test: shrunken log2 fold change of peptide-encoding DNA abundance (4.5 h post-induction vs induction); higher = less antimicrobial activity (less host growth inhibition)
Settings: time post-induction: 4.5 h; library: site-saturation at positions 5, 18, 19, 20
Quick list: shrunken log2 fold change per entry.
Please state the value as a number alone, without comment.

Could you please provide reported shrunken log2 fold change for "RRIRARPPRLPRPRPRPIQRPRP" ? Thanks!
0.112

Could you please provide reported shrunken log2 fold change for "RRIRDRPPRLPRPRPRPLGPPRP" ? Thanks!
0.191

Could you please provide reported shrunken log2 fold change for "RRIRGRPPRLPRPRPRPTVWPRP" ? Thanks!
1.32

Could you please provide reported shrunken log2 fold change for "RRIRRRPPRLPRPRPRPCRTPRP" ? Thanks!
0.173

Could you please provide reported shrunken log2 fold change for "RRIRGRPPRLPRPRPRPDWLPRP" ? Thanks!
0.963

Attribution: the supplement of paper PMC9112550
